- Target Or Test System: PD-L1 antigen (ELISA of Example 2) (human, UniProt Q9NZQ7 19-239, limits assumed)
- Sequence (Q9NZQ7 19-239 limits assumed): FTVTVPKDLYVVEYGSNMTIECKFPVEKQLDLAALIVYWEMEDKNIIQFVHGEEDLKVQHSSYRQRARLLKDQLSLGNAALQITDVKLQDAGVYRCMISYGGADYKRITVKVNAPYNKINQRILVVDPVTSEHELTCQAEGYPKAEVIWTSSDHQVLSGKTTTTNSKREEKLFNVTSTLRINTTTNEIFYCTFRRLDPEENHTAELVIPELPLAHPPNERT
- Assay Protocol: ELISA, signal on PD-L1 antigen over control
Field: A/control. Provide a value for each of the binders that follow.
Reply with just the number.

Query: Can you share its A/control? I mean this binder: 3LIG7 (VHH, PD-L1 VHH) VHH: QVQLQESGGGLVQAGGSLRLSCAASGFTFSSYGMSWVRQTPGKGPEWVSAIDSGGGSTSYADSVKGRFTISRDNAKNTLYLQMNSLKPEDTAVYYCAQGYYCSGYGCSDYWGQGTQVTVSS
Reply: 37.6

Query: Can you share its A/control? I mean this binder: 2LIG97 (VHH, PD-L1 VHH) VHH: QVQLQESGGGLVQAGESLRLSCTASGTIFSINRMDWFRQAPGKQRELVALITSDGTPTYADSAKGRFTISRDNTKKTVSLQMNSLKPEDTAVYYCHVSSGVYNYWGQGTQVTVSS
Reply: 5.13

Query: Can you share its A/control? I mean this binder: 2LIG139 (VHH, PD-L1 VHH) VHH: QVQLQESGGGLVQPGGSLRLSCAVSGFNLDPYAIAWFRQAPGKEREEVSCISSSDVGTYYADSVKGRFTISRDNAKKTVYLQMNSLKPEDTAVYYCATDGYYYCSDYPHPLYWGQGTQVTVSS
Reply: 33.3

Query: Can you share its A/control? I mean this binder: 3LIG30 (VHH, PD-L1 VHH) VHH: QVQLQESGGGTVQAGGSLRLSCAASGFTFNDYAMSWVRQAPGKGLEWVSGIRSNGGYTNYADSVKGRFTISRDNAKNTLYLQMNSLKSEDTAVYYCAQGYYCSGYGCYPGQGTQVTVSS
Reply: 47.3
